Entries and their Flow function values follow.
# PROCEDURE_TEXT: Flow function by FT4 Powder Rheometer, shear test 9 kPa
# Format: physicochemical
# MEASUREMENT_PARAMETERS: 9 kPa shear test, 1 ml cell

>  <COMPOUND>
Cc1cc2c(s1)Nc1ccccc1N=C2N1CCN(C)CC1 [Batch M6-020]

>  <Flow function>
2.0

$$$$
>  <COMPOUND>
Cc1cc2c(s1)Nc1ccccc1N=C2N1CCN(C)CC1 [Batch M1-010]

>  <Flow function>
1.4

$$$$
>  <COMPOUND>
Cc1cc2c(s1)Nc1ccccc1N=C2N1CCN(C)CC1 [Batch S3-221]

>  <Flow function>
1.8

$$$$
>  <COMPOUND>
Cc1cc2c(s1)Nc1ccccc1N=C2N1CCN(C)CC1 [Batch S2-920]

>  <Flow function>
2.0

$$$$

Values compiled from patent US20250073165A1.
